Molecular target: σ1-receptor (Cavia porcellus)
Construct: guinea pig brains were homogenized; from tissue; host or cells: guinea pig brain membranes
Sequence (Q60492 whole entry): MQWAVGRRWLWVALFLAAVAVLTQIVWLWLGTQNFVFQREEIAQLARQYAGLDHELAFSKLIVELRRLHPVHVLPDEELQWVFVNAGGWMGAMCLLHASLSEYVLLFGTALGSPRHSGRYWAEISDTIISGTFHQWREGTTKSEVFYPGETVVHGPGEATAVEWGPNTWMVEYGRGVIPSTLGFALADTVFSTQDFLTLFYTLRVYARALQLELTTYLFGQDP
Experiment: Sigma-1 receptor binding, [3H](+)-pentazocine, brain membranes
Parameters: species or system guinea pig
Conditions: [3H](+)-pentazocine, guinea pig brain membranes; read-out: binding sigma-1 Ki
Counter-ions that a name gives are not always drawn.
Mark each entry label 1 if its Ki sits below 2 nM, and label 0 for all others.

Inquiry: Below 2 nM on Ki? Entry C[C@@H]1CN(CCC2CCCc3c2cnn3-c2ccccc2)C[C@H](C)O1.O=C(O)C(=O)O (stereo partly drawn) [Example 49, oxalate]
Reply text: label 0

Inquiry: Below 2 nM on Ki? Entry CN(CCC1CCCc2c1cnn2-c1ccc(F)cc1)Cc1ccccc1 (stereo not drawn) [Example 69]
Reply text: label 0

Inquiry: Below 2 nM on Ki? Entry O=C(O)C(=O)O.c1ccc(-n2ncc3c2CCCC3CCN2CCCCC2)cc1 (stereo not drawn) [Example 14, oxalate]
Reply text: label 0

Inquiry: Below 2 nM on Ki? Entry C(/CN1CCC(c2ccccc2)C1)=C1/CCCc2c1cnn2-c1ccccc1 (stereo not drawn) [Example 24]
Reply text: label 1

Inquiry: Below 2 nM on Ki? Entry C[C@@H]1CN(CCC2CCc3c2cnn3-c2ccccc2)C[C@H](C)O1.O=C(O)C(=O)O (stereo partly drawn) [Example 47, oxalate]
Reply text: label 1

Inquiry: Below 2 nM on Ki? Entry CN(CCC1CCCc2c1cnn2-c1ccccc1)Cc1ccccc1 (stereo not drawn) [Example 54]
Reply text: label 0

Inquiry: Below 2 nM on Ki? Entry C(/CN1CCCCCC1)=C1/CCCc2c1cnn2-c1ccccc1.O=C(O)C(=O)O [Example 16, oxalate]
Reply text: label 1

Inquiry: Below 2 nM on Ki? Entry Fc1ccc(-n2ncc3c2CCCC3CCN2CCOCC2)cc1.O=C(O)C(=O)O (stereo not drawn) [Example 66, oxalate]
Reply text: label 0

Inquiry: Below 2 nM on Ki? Entry c1ccc(-n2ncc3c2CCC3CCN2CCSCC2)cc1 (stereo not drawn) [Example 97, oxalate]
Reply text: label 1

Inquiry: Below 2 nM on Ki? Entry CN(CCC1CCCc2c1cnn2C)Cc1ccccc1.O=C(O)C(=O)O (stereo not drawn) [Example 62, oxalate]
Reply text: label 0

Inquiry: Below 2 nM on Ki? Entry c1ccc(-n2ncc3c2CCC3CCn2ccnc2)cc1 (stereo not drawn) [Example 45]
Reply text: label 0

Inquiry: Below 2 nM on Ki? Entry O=C(O)C(=O)O.c1ccc(-n2ncc3c2CCCC3CCN2Cc3ccccc3C2)cc1 (stereo not drawn) [Example 56, oxalate]
Reply text: label 1

Inquiry: Below 2 nM on Ki? Entry O=C(O)C(=O)O.c1ccc(-n2ncc3c2CCC3CCN2Cc3ccccc3C2)cc1 (stereo not drawn) [Example 35, oxalate]
Reply text: label 0

Inquiry: Below 2 nM on Ki? Entry C(/CN1CCCCC1)=C1/CCCc2c1cnn2-c1ccccc1 [Example 27]
Reply text: label 0

Inquiry: Below 2 nM on Ki? Entry O=C(O)C(=O)O.c1ccc(-n2ncc3c2CCC3CCN2CCOCC2)cc1 (stereo not drawn) [Example 31, oxalate]
Reply text: label 1

Inquiry: Below 2 nM on Ki? Entry C(/CN1CCC(c2ccccc2)CC1)=C1/CCCc2c1cnn2-c1ccccc1 [Example 17]
Reply text: label 0

Inquiry: Below 2 nM on Ki? Entry Cn1ncc2c1CCCC2CCN1Cc2ccccc2C1.O=C(O)C(=O)O (stereo not drawn) [Example 60, oxalate]
Reply text: label 0

Inquiry: Below 2 nM on Ki? Entry O=C(O)C(=O)O.c1ccc(C2CCN(CCC3CCCc4c3cnn4-c3ccccc3)CC2)cc1 (stereo not drawn) [Example 9, oxalate]
Reply text: label 1

Inquiry: Below 2 nM on Ki? Entry c1ccc(CN2CCN(CCC3CCCc4c3cnn4-c3ccccc3)CC2)cc1 (stereo not drawn) [Example 10]
Reply text: label 0

Inquiry: Below 2 nM on Ki? Entry CN(CCC1CCc2c1cnn2-c1ccccc1)Cc1ccccc1 (stereo not drawn) [Example 52]
Reply text: label 0

Inquiry: Below 2 nM on Ki? Entry c1ccc(C2CCN(CCC3CCc4c3cnn4-c3ccccc3)CC2)cc1 (stereo not drawn) [Example 36]
Reply text: label 0

Inquiry: Below 2 nM on Ki? Entry c1ccc(-n2ncc3c2CCC3CCN2CCCC2)cc1 (stereo not drawn) [Example 40, oxalate]
Reply text: label 0

Inquiry: Below 2 nM on Ki? Entry CC1CCN(CCC2CCCc3c2cnn3-c2ccccc2)CC1 (stereo not drawn) [Example 94, oxalate]
Reply text: label 1

Inquiry: Below 2 nM on Ki? Entry Clc1ccc(-n2ncc3c2CCCC3CCN2CCC(c3ccccc3)CC2)cc1Cl (stereo not drawn) [Example 4, oxalate]
Reply text: label 0

Inquiry: Below 2 nM on Ki? Entry CC1CCN(CCC2CCc3c2cnn3-c2ccccc2)CC1 (stereo not drawn) [Example 99, oxalate]
Reply text: label 1

Inquiry: Below 2 nM on Ki? Entry C(/CN1CCOCC1)=C1/CCCc2c1cnn2-c1ccccc1 [Example 5]
Reply text: label 0

Inquiry: Below 2 nM on Ki? Entry Cn1ncc2c1CCCC2CCN1CCC(c2ccccc2)CC1.O=C(O)C(=O)O (stereo not drawn) [Example 58, oxalate]
Reply text: label 1

Inquiry: Below 2 nM on Ki? Entry Fc1ccc(-n2ncc3c2CCCC3CCN2Cc3ccccc3C2)cc1 (stereo not drawn) [Example 70]
Reply text: label 0

Inquiry: Below 2 nM on Ki? Entry c1ccc(-n2ncc3c2CCC3CCN2CCCCC2)cc1 (stereo not drawn) [Example 37]
Reply text: label 1

Inquiry: Below 2 nM on Ki? Entry C[C@@H]1CN(CCC2CCCc3c2cnn3-c2ccc(F)cc2)C[C@H](C)O1.O=C(O)C(=O)O (stereo partly drawn) [Example 68, oxalate]
Reply text: label 0

Inquiry: Below 2 nM on Ki? Entry Clc1ccc(-n2ncc3c2CCCC3CCN2CCOCC2)cc1Cl.O=C(O)C(=O)O (stereo not drawn) [Example 7, oxalate]
Reply text: label 0

Inquiry: Below 2 nM on Ki? Entry C(/CN1CCCC(c2ccccc2)C1)=C1/CCCc2c1cnn2-c1ccccc1 (stereo not drawn) [Example 23]
Reply text: label 0
